# assay.info: physchem
# experimental.conditions: Intestine
# Description: Compound was evaluated for its rate of absorption from the intestine and pKa value was determined, lower value indicate high absorption from gastrointestinal tract.
property.name: pKa

> print(dat)
                         compound.structure  numeric.value
1  COc1cc(NS(C)(=O)=O)ccc1Nc1c2cccc(C)c2nc2c(OC)cccc12            6.9
2  CNC(=O)c1cccc2c(Nc3ccc(NS(C)(=O)=O)cc3OC)c3cccc(OC)c3nc12           6.55
3  COc1cc(NS(C)(=O)=O)ccc1Nc1c2cccc(C)c2nc2c(C(N)=O)cccc12           6.43
4  CNC(=O)c1cccc2c(Nc3ccc(NS(C)(=O)=O)cc3OC)c3cccc(C)c3nc12            6.4
